Recorded values, source patent US6800775B1.

Experiment: DTI (dye transfer inhibition) test, white cotton in wash liquor with dissolved test dye
Details: Reactive Blue 238 6 mg/l of the 100% formulation; complex 20 μmol/l wash liquor; 8.6 mmol/l H2O2; 40° C., 30 min
Threshold check on DTI effect a(%) Dye 2: at or above 70% gives Fulfilled, strictly below gives Not fulfilled.

INSERT INTO measurements (molecule, class_name) VALUES
  ('Cc1ccc(C=NCCN(CCN=Cc2ccc(C)cc2O)CC/N=C/c2ccc(C)cc2O)c(O)c1 [Example 9]', 'Fulfilled'),
  ('Oc1ccc(/C=N\CCN(CC/N=C/c2ccc(O)cc2O)CC/N=C/c2ccc(O)cc2O)c(O)c1 [Example 5]', 'Not fulfilled'),
  ('COc1ccc(/C=N\CCN(CC/N=C/c2ccc(OC)cc2O)CC/N=C/c2ccc(OC)cc2O)c(O)c1 [Example 4]', 'Not fulfilled'),
  ('O=S(=O)([O-])c1ccc(O)c(C=NCCN(CCN=Cc2cc(S(=O)(=O)[O-])ccc2O)CC/N=C/c2cc(S(=O)(=O)[O-])ccc2O)c1.[Na+].[Na+].[Na+] [Example 12]', 'Fulfilled'),
  ('C[N+](C)(C)c1ccc(C=NCCN(CCN=Cc2ccc([N+](C)(C)C)cc2O)CC/N=C/c2ccc([N+](C)(C)C)cc2O)c(O)c1.[Br-].[Br-].[Br-] [Example 10]', 'Fulfilled'),
  ('CCN(C)c1ccc(C=NCCN(CCN=Cc2ccc(N(C)CC)cc2O)CC/N=C/c2ccc(N(C)CC)cc2O)c(O)c1 [Example 8]', 'Fulfilled');

* * *

Assay: DTI (dye transfer inhibition) test, white cotton in wash liquor with dissolved test dye
Conditions: Direct Brown 172 10 mg/l of the 250% formulation; complex 20 μmol/l wash liquor; 8.6 mmol/l H2O2; 40° C., 30 min
Threshold check on DTI effect a(%) Dye 1: at or above 80% gives satisfied, strictly below gives not satisfied.

INSERT INTO assay_data (compound, class_name) VALUES
  ('C[N+](C)(C)c1ccc(O)c(C=NCCN(CCN=Cc2cc([N+](C)(C)C)ccc2O)CC/N=C/c2cc([N+](C)(C)C)ccc2O)c1.[Br-].[Br-].[Br-] [Example 11]', 'satisfied'),
  ('CN(C)c1ccc(/C=N\CCN(CC/N=C/c2ccc(N(C)C)cc2O)CC/N=C/c2ccc(N(C)C)cc2O)c(O)c1 [Example 3]', 'satisfied'),
  ('Oc1ccccc1/C=N\CCN(CC/N=C/c1ccccc1O)CC/N=C/c1ccccc1O [Example 1]', 'satisfied'),
  ('CCN(C)c1ccc(C=NCCN(CCN=Cc2ccc(N(C)CC)cc2O)CC/N=C/c2ccc(N(C)CC)cc2O)c(O)c1 [Example 8]', 'satisfied'),
  ('C[N+](C)(C)c1ccc(C=NCCN(CCN=Cc2ccc([N+](C)(C)C)cc2O)CC/N=C/c2ccc([N+](C)(C)C)cc2O)c(O)c1.[Br-].[Br-].[Br-] [Example 10]', 'satisfied'),
  ('O=[N+]([O-])c1ccc(O)c(C=NCCN(CCN=Cc2cc([N+](=O)[O-])ccc2O)CC/N=C/c2cc([N+](=O)[O-])ccc2O)c1 [Example 6]', 'not satisfied');

* * *

Below, each entry is listed alongside its reported DTI effect a(%) Dye 1.
Test: DTI (dye transfer inhibition) test, white cotton in wash liquor with dissolved test dye
Settings: Direct Brown 172 10 mg/l of the 250% formulation; complex 20 μmol/l wash liquor; 8.6 mmol/l H2O2; 40° C., 30 min
recorded_metric: DTI effect a(%) Dye 1

INSERT INTO assay_data (chemical_smiles, units, observed_measurement) VALUES
  ('Oc1ccc(/C=N\CCN(CC/N=C/c2ccc(O)cc2O)CC/N=C/c2ccc(O)cc2O)c(O)c1', '%', 78),
  ('O=S(=O)([O-])c1ccc(O)c(C=NCCN(CCN=Cc2cc(S(=O)(=O)[O-])ccc2O)CC/N=C/c2cc(S(=O)(=O)[O-])ccc2O)c1.[Na+].[Na+].[Na+]', '%', 80),
  ('CCN(CC)c1ccc(C=NCCN(CCN=Cc2ccc(N(CC)CC)cc2O)CC/N=C/c2ccc(N(CC)CC)cc2O)c(O)c1', '%', 78),
  ('CC(C)N(C)c1ccc(C=NCCN(CCN=Cc2ccc(N(C)C(C)C)cc2O)CC/N=C/c2ccc(N(C)C(C)C)cc2O)c(O)c1', '%', 84),
  ('Cc1ccc(C=NCCN(CCN=Cc2ccc(C)cc2O)CC/N=C/c2ccc(C)cc2O)c(O)c1', '%', 87),
  ('COc1ccc(/C=N\CCN(CC/N=C/c2ccc(OC)cc2O)CC/N=C/c2ccc(OC)cc2O)c(O)c1', '%', 83);
